System: Rat liver lysosome
Test: Lysosomal membrane stabilizing activity (release of β-glucuronidase and acid phosphatase)
Format: biochemical
Details: 2 × 10^-4 M, 37° C., 90 minutes
Property: % Inhibition on release of β-Glucuronidase
The answer should read as a number with its unit following.

// below: answered molecules
[
  {
    "Molecule": "CC1=C(C)C(=O)C(C/C=C(\\C)C(=O)O)=C(C)C1=O [drawing 13 R#2]",
    "Result": "36%"
  },
  {
    "Molecule": "COC1=C(OC)C(=O)C(C/C=C(\\C)CCCO)=C(C)C1=O [drawing 17 R#1]",
    "Result": "28%"
  },
  {
    "Molecule": "COC1=C(OC)C(=O)C(CC(O)C(C)C(=O)O)=C(C)C1=O (centres unmarked) [drawing 11 R#1]",
    "Result": "18%"
  },
  {
    "Molecule": "CC(=CCC1=C(C)C(=O)C(C)=C(C)C1=O)CCC=C(C)CCC(C)(C)O [drawing 20 R#1]",
    "Result": "20%"
  }
]

Please give % Inhibition on release of β-Glucuronidase, item by item, for the list that follows.
1. CC1=C(C)C(=O)C(CCC(C)CO)=C(C)C1=O (centres unmarked) [drawing 19 R: H3 C]
2. COC1=C(OC)C(=O)C(C/C=C(\C)C(=O)O)=C(C)C1=O [drawing 13 R#1]
3. CC1=C(CC(O)C(C)C(=O)O)C(=O)c2ccccc2C1=O (centres unmarked) [drawing 11 R#3]

29%
36%
15%

Please give % Inhibition on release of β-Glucuronidase, item by item, for the list that follows.
1. COC1=C(OC)C(=O)C(CCC(C)CO)=C(C)C1=O (centres unmarked) [drawing 19 R: H3 CO]
2. CC1=C(C/C=C(\C)CO)C(=O)c2ccccc2C1=O [drawing 15 R#2]
3. CC1=C(C)C(=O)C(CC(O)C(C)C(=O)O)=C(C)C1=O (centres unmarked) [drawing 11 R#2]
4. CC1=C(C)C(=O)C(C/C=C(\C)CO)=C(C)C1=O [drawing 15 R#1]

1: 38%; 2: 37%; 3: 29%; 4: 37%
